Recorded EC50, one value per entry.
Molecular target: RNA-binding protein pos-1 (Caenorhabditis elegans)
Sequence (G5EF15 whole entry): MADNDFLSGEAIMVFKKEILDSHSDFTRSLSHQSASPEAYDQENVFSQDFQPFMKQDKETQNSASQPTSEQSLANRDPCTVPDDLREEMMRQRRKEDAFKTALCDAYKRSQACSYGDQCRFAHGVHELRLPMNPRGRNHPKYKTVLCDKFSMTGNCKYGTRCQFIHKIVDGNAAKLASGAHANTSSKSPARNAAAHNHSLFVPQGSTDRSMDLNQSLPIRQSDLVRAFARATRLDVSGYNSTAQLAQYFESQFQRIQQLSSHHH
Assay: disruptors of C. elegans POS-1 RNA interaction – biochemical, fluorescence polarization, dose response (AID 1964);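 note: purified POS-1 fused to maltose binding protein made in E. coli; potency of compounds blocking POS-1 binding to fluorescent RNA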
Activity calls are given as the source filed them. Cut-off read from the data, not from the text of the source: actives have a measured EC50 and inactives only a lower limit.

Here is how some molecules turned out for EC50.
[[record]]
molecule = "O=C1NC(=O)N(c2ccc(F)cc2)C(=O)/C1=C/Nc1ccccc1N1CCCC1"
value_type = "EC50"
value = "76.7 µM (active)"

[[record]]
molecule = "COc1cccc(NC(=O)C(=O)c2cn(CC(=O)N3CCOCC3)c3ccccc23)c1"
value_type = "EC50"
value = "> 300 µM (not active)"

[[record]]
molecule = "CCOC(=O)/C(C#N)=C/c1cc2ccccc2nc1N1CCCCC1"
value_type = "EC50"
value = "> 300 µM (not active)"

[[record]]
molecule = "C=CCOc1cccc(C2C(C(=O)c3cc4ccccc4o3)=C(O)C(=O)N2c2cc(C)on2)c1 (stereo not given)"
value_type = "EC50"
value = "> 300 µM (not active)"

[[record]]
molecule = "CCN1CCN(C(=O)c2ccc3c(=O)n(Cc4ccccc4OC)c(=S)[nH]c3c2)CC1"
value_type = "EC50"
value = "> 300 µM (not active)"


Value wanted: EC50 (RNA-binding protein pos-1 (Caenorhabditis elegans)) of entry "COc1ccc(Nc2ncnc3nc[nH]c23)cc1OC" > 300 µM (not active)

Value wanted: EC50 (RNA-binding protein pos-1 (Caenorhabditis elegans)) of entry "COc1ccc(NC(=O)NS(=O)(=O)c2ccc(C)cc2)cn1" 2.37 µM (inconclusive)

Value wanted: EC50 (RNA-binding protein pos-1 (Caenorhabditis elegans)) of entry "Cc1ccc(NC(=O)CN2C(=O)N/C(=C\c3cccn3-c3cccc(C(=O)O)c3)C2=O)cc1" > 300 µM (not active)

Value wanted: EC50 (RNA-binding protein pos-1 (Caenorhabditis elegans)) of entry "CN1C(=O)C(=Cc2ccccc2OS(=O)(=O)c2ccccc2)C(=O)N(C)C1=O" > 300 µM (not active)

Value wanted: EC50 (RNA-binding protein pos-1 (Caenorhabditis elegans)) of entry "Cc1ccccc1NC(=O)/C(C#N)=C\c1cc(C)n(-c2ccc(C(=O)O)cc2)c1C" > 300 µM (not active)

* * *

Biological target: Zinc finger protein mex-5 (Caenorhabditis elegans, UniProt Q9XUB2)
Sequence (Q9XUB2 whole entry): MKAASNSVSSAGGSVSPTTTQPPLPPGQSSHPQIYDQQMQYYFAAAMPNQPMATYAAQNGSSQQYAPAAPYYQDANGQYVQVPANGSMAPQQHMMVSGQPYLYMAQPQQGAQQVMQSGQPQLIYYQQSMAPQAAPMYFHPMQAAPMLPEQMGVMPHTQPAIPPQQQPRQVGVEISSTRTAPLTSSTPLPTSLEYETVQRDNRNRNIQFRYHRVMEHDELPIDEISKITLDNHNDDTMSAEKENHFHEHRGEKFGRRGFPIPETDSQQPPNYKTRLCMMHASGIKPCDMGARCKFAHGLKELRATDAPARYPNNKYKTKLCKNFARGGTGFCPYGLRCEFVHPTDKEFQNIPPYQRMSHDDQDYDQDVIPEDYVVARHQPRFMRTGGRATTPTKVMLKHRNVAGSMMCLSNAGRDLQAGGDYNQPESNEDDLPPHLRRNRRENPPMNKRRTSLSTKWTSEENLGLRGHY
Assay: potency of MEX-5 RNA-binding blockers – biochemical, C. elegans, fluorescence polarization, dose response (AID 1960)
Calls of active or inactive are those of the source. No stated cut-off is given here; in the data, actives have a measured EC50 and inactives only a lower limit.
value-type: EC50

Here is how some molecules turned out for EC50.
[[record]]
molecule = "COc1cccc(NC(=O)C(=O)c2cn(CC(=O)N3CCOCC3)c3ccccc23)c1"
value = "> 300 µM (not active)"

[[record]]
molecule = "Cc1ccc(NC(=O)CN2C(=O)N/C(=C\\c3cccn3-c3cccc(C(=O)O)c3)C2=O)cc1"
value = "54 µM (active)"

[[record]]
molecule = "Cc1ccccc1NC(=O)/C(C#N)=C\\c1cc(C)n(-c2ccc(C(=O)O)cc2)c1C"
value = "> 300 µM (not active)"

[[record]]
molecule = "CN1C(=O)C(=Cc2ccccc2OS(=O)(=O)c2ccccc2)C(=O)N(C)C1=O"
value = "> 300 µM (not active)"

[[record]]
molecule = "COc1ccc(NC(=O)NS(=O)(=O)c2ccc(C)cc2)cn1"
value = "2.38 µM (inconclusive)"


Value lookup for EC50; key = "CCN1CCN(C(=O)c2ccc3c(=O)n(Cc4ccccc4OC)c(=S)[nH]c3c2)CC1" > 300 µM (not active)

Value lookup for EC50; key = "O=C1NC(=O)N(c2ccc(F)cc2)C(=O)/C1=C/Nc1ccccc1N1CCCC1" 103 µM (active)

Value lookup for EC50; key = "COc1ccc(Nc2ncnc3nc[nH]c23)cc1OC" 23.9 µM (active)

Value lookup for EC50; key = "CCOC(=O)/C(C#N)=C/c1cc2ccccc2nc1N1CCCCC1" 104 µM (active)

Value lookup for EC50; key = C=CCOc1cccc(C2C(C(=O)c3cc4ccccc4o3)=C(O)C(=O)N2c2cc(C)on2)c1 (stereo not given) 80.5 µM (active)
